This collection of values is drawn from patent US11377442B2.

Item-by-item account of Firefly, cmpd/DMSO repeat 2
Molecular target: NR2F6 (Homo sapiens)
Construct: expressed in transfected cells; also transient transfection
Test: NR2F6 agonist screening, Firefly signal cmpd/DMSO
Type: cell-based
Settings: Table 9; repeat 2
I only need the number, thanks.

- COc1cccc2cc(S(=O)(=O)c3cc(F)cc(F)c3)c(=O)oc12: 1.8
- COc1cccc2cc(S(=O)(=O)c3ccc(F)c(C)c3)c(=O)oc12: 1.6

Problem: Hi! What's the reported Firefly, cmpd/DMSO repeat 2 for COc1cccc2cc(S(=O)(=O)c3ccccc3F)c(=O)oc12 on NR2F6 (Homo sapiens)?
Result: 2.7

---

Target: NR2F6 (Homo sapiens, UniProt P10588)
Construct: expressed in transfected cells; also transient transfection
Sequence (P10588 whole entry): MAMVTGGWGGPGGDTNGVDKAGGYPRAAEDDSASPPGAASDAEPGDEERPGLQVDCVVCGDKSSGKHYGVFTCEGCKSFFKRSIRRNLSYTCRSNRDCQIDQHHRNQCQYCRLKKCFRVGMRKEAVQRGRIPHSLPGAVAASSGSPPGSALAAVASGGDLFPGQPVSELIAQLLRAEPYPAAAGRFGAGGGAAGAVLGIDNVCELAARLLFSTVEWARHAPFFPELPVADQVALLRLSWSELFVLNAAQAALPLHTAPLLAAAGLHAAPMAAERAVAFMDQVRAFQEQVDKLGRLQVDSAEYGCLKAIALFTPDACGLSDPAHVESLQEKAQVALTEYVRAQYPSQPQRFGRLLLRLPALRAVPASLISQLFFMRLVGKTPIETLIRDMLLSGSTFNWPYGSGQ
Assay: NR2F6 agonist screening, Firefly signal cmpd/DMSO
Type: cell-based
Settings: Table 15; 2 uM
Label Y for high-side Firefly F4, cmpd/DMSO (mean) (at or above 1) and N for low-side Firefly F4, cmpd/DMSO (mean) (below it).

Problem: Firefly F4, cmpd/DMSO (mean) >= 1 for COc1cccc(-c2noc(Cn3ncccc3=O)n2)c1 ?
Result: Y

Problem: // inclusive: Firefly F4, cmpd/DMSO (mean) at least 1? input: COc1cccc(-c2noc(Cn3ncc4ccccc4c3=O)n2)c1
Result: Y

Problem: Determine whether measured Firefly F4, cmpd/DMSO (mean) meets or exceeds 1 for CCOC(=O)c1cnc2c(C)cc(C)cc2c1NCCCN1CCCCC1 [Compound Z8]
Result: Y

Problem: Textbook exercise: given the entry COc1ccc(-c2noc(Cn3ncc4ccccc4c3=O)n2)cc1 , state whether its Firefly F4, cmpd/DMSO (mean) is greater than or equal to 1.
Result: N
